System: U937 cells
Assay: Cell line drug sensitivity (CellTiter-Glo)
Format: cell-based
Conditions: Homo sapiens, U-937, 48 h
pIC50: −log10 of the molar value.
Recorded pIC50 by entry

compound="N[C@H](C(=O)N1CCC[C@H]1B(O)O)C12CC3CC(CC(C3)C1)C2 (relative stereo)" target_or_system="U937 cells" recorded_result="< 4.22"

Now for a further compound.
Return reported pIC50 for target or system U937 cells, item CC1([C@H](N)C(=O)N2CCC[C@H]2B(O)O)CCCCC1 (relative stereo) [ARI-4175CH] .
< 4.22
